# Test system: CCRF-CEM leukemia
# MEASUREMENT_DESCRIPTION: NCI tumour cell line growth inhibition, 48 h
PROPERTY_LABEL: TGI

{"columns": ["COMPOUND", "TGI"],
 "data": [
  ["COc1cc(Br)c(C=Nc2cccc3ccc(OS(=O)(=O)c4ccc([N+](=O)[O-])cc4)cc23)cc1OC", "> 100 µM"],
  ["O=S(=O)(c1ccccc1)C1(C2(S(=O)(=O)c3ccccc3)CCN=N2)CCN=N1 (stereo unspecified)", "> 100 µM"],
  ["ON[C@@H]1C=C[C@H](n2cnc3c(NC4CC4)ncnc32)C1", "> 100 µM"],
  ["COC(=O)c1cc2c3cc(Cl)ccc3[nH]c2c2ncccc12", "> 100 µM"],
  ["O=C1C=CC(=O)N1c1ccc2ccccc2c1", "7.94 µM"],
  ["O=C(O)c1cc(-c2ccc3cc(O)c(O)cc3c2)ccc1O", "> 12.5 µM"],
  ["CCCCCCCCC#CCCCCCCC(F)C(=O)O (stereo unspecified)", "> 100 µM"],
  ["CS(C)(=O)=Nn1c(=O)n2n(c1=O)[C@H]1CC[C@@H]2C1", "> 100 µM"],
  ["N#Cc1ccc(N=NN2CCCC2)cc1", "> 100 µM"],
  ["C1=C(c2ccccc2)NC2=N[C@H]3CCCC[C@@H]3N2C1c1ccccc1 (stereo partly specified)", "43.4 µM"]
]}

Asked: Fetch value of TGI on CCRF-CEM leukemia for `Fc1nc(-c2c3ccccc3c3sc4ccccc4n23)nc(N2CCOCCOCCOCCOCC2)n1` .
Given back: 93.4 µM

Asked: Write TGI of C[C@]12CC/C(=N\OCCN3CCCC3)C=C1CCC1C2CC[C@@]2(C)C1CC[C@]2(C)O (stereo partly specified) ; system used: CCRF-CEM leukemia
Given back: 9.6 µM

Asked: Output reported TGI of the compound `CCOC(=O)N1C/C(=C\c2ccc(N(C)C)cc2)C(=O)/C(=C/c2ccc(N(C)C)cc2)C1` on CCRF-CEM leukemia.
Given back: > 100 µM

Asked: Report TGI from CCRF-CEM leukemia testing of COc1ccc(-c2cc(-c3ccco3)c(C#N)c(=O)n2C2OC(COC(C)=O)C(OC(C)=O)C(OC(C)=O)C2OC(C)=O)cc1 (stereo unspecified)
Given back: > 100 µM

Asked: Give TGI for `COc1ccc(-c2c(C#N)c(N)nc(Sc3ccccc3N)c2C#N)cc1` tested on CCRF-CEM leukemia.
Given back: > 100 µM

Asked: Would you please give the reported TGI of `Cc1c2cnccc2c(C)c2c1c1ccccc1n2CCCCCCCl` with CCRF-CEM leukemia?
Given back: > 50 µM

Asked: Check CCRF-CEM leukemia data and give TGI for `O=C1OC(=O)c2c1cc1cc3c(cc1c2-c1ccc2c(c1)OCO2)OCO3` .
Given back: > 100 µM

Asked: # assay system CCRF-CEM leukemia: give TGI of CC1CCC2C(C(=O)O[C@H]3C4C=CO[C@@H](OC5OC(CO)C(O)C(O)C5O)C4[C@@]4(CO)O[C@@H]34)=CO[C@@H](OC3OC(CO)C(O)C(O)C3O)C12 (stereo partly specified)
Given back: > 10 µM

---

# System: NCI-H23 lung
# MEASUREMENT_DESCRIPTION: NCI tumour cell line growth inhibition, 48 h; in the data active = GI50 below about 0.43 µM; inactive = the rest
Would you mind answering with one of these outcomes? true (1) for active, false (0) for inactive

{"columns": ["MOLECULE", "LABEL_CLASS"],
 "data": [
  ["NC(=O)c1c(NC(=O)c2ccc(C(F)(F)F)cc2Cl)sc2c1CCC(=O)C2", "true (1)"],
  ["O=C1/C(=C/c2ccc([N+](=O)[O-])s2)Oc2ccc(Br)cc21", "false (0)"],
  ["CCOC(=O)c1c(C)n(Cc2ccc(Cl)cc2Cl)c2c1cc(O)c1[nH]c(Cc3ccccc3)nc12", "false (0)"],
  ["O=C(/C=C/c1cccc(Cl)c1)c1ccccc1", "false (0)"],
  ["Nc1ncnc2occ(-c3ccc(NC(=O)Nc4cccc(C(F)(F)F)c4)cc3)c12", "false (0)"],
  ["O=C1C=CC(=O)N1c1ccc2ccccc2c1", "false (0)"],
  ["CCn1cnc(C[C@H](NC(=O)[C@@H](NC(=O)Nc2cc(C(F)(F)F)cc(C(F)(F)F)c2)C(C)(C)C)C(=O)OC)c1", "false (0)"],
  ["C(#Cc1ccccc1C#Cc1cnccn1)c1cnccn1", "false (0)"]
]}

Please look at the following molecule next.
Asked: Name the outcome recorded for `COc1ccc(/C(=N/O)c2cc(F)c(F)c(OC)c2F)cc1O` in the assay.
Given back: false (0)

---

Recorded TGI for the following compounds
# System: HL-60(TB) leukemia
# MEASUREMENT_DESCRIPTION: NCI tumour cell line growth inhibition, 48 h

Past entries and their recorded results:
{"columns": ["COMPOUND", "TGI"],
 "data": [
  ["CC(C)(C(=O)N(C(=O)N1CCN(c2ccccc2)CC1)S(=O)(=O)c1ccccc1)c1ccc(Cl)cc1", "> 100 µM"],
  ["CC[P+](C)(C)CC", "> 100 µM"],
  ["Cc1ncc2c(n1)CCC1=C2OS(=O)(=O)CC1N(C)C (configuration not stated)", "> 100 µM"]
]}

Asked: Quote TGI with test system HL-60(TB) leukemia for `COC(=O)c1c(C)c2c(c(C)c1O)OC(=O)c1c(C)cc(O)c(C=O)c1O2`
Given back: > 100 µM

---

# Tested on: K-562 leukemia
# MEASUREMENT_DESCRIPTION: NCI tumour cell line growth inhibition, 48 h
Overview of recorded TGI for various molecules

{"columns": ["MOLECULE", "SYSTEM", "PROPERTY_LABEL", "RESULT"],
 "data": [
  ["C=C(Cl)C(Cl)(CBr)CCCC(C)C (stereo not given)", "K-562 leukemia", "TGI", "> 100 µM"]
]}

Lab note: next molecule to report on.
Asked: Please supply the value of reported TGI for the item `CC(C)(C)c1cc(C(C)(C)C)c(SSc2c(C(C)(C)C)cc(C(C)(C)C)c(O)c2O)c(O)c1O`
Given back: 26.2 µM

---

# Tested on: CAKI-1 renal
# MEASUREMENT_DESCRIPTION: NCI tumour cell line growth inhibition, 48 h
PROPERTY_LABEL: TGI

{"columns": ["COMPOUND", "SYSTEM", "PROPERTY_LABEL", "RESULT"],
 "data": [
  ["COc1ccc(-c2cc(-c3ccco3)c(C#N)c(=O)n2C2OC(COC(C)=O)C(OC(C)=O)C(OC(C)=O)C2OC(C)=O)cc1 (stereo not given)", "CAKI-1 renal", "TGI", "> 100 µM"],
  ["CCSc1c2cc(OC)ccc2nc2ccc(OC)cc12", "CAKI-1 renal", "TGI", "45.4 µM"],
  ["C(#Cc1ccccc1C#Cc1cnccn1)c1cnccn1", "CAKI-1 renal", "TGI", "51.5 µM"],
  ["CC(=O)OC1CCC2(C)C(=CCC3C2CCC2(C)C3CC3OC4(CCC(C)CN4)C(C)C32)C1 (stereo not given)", "CAKI-1 renal", "TGI", "> 100 µM"],
  ["CCCCCCCCCCCCNCCCc1ccccc1", "CAKI-1 renal", "TGI", "3.44 µM"]
]}

Asked: Enter recorded TGI with CAKI-1 renal for O=C1Sc2sc(=S)sc2SC1c1ccccc1 (stereo not given) here.
Given back: > 100 µM

Asked: Please indicate recorded TGI of `COC(=O)C1=CCC[C@H]2[C@@]1(COC(C)=O)CC[C@@H](C)[C@]2(C)CC(=O)c1ccoc1` measured with CAKI-1 renal.
Given back: > 50 µM

Asked: Provide the reported TGI (system: CAKI-1 renal) for `O=C(N/N=C\c1ccc([N+](=O)[O-])cc1)Nc1ccc2ccccc2c1`
Given back: > 100 µM

Asked: Write down the reported TGI (system: CAKI-1 renal) of `CSCCCNC(=O)c1csc(-c2csc(CCNC(=O)CNC(=O)OC(C)(C)C)n2)n1`
Given back: > 100 µM

Asked: Give the observed TGI of CC(C)CC1CC2C(=O)N(c3ccccc3)C(=O)C2c2[nH]c3ccccc3c21 (stereo not given) for CAKI-1 renal.
Given back: 72.7 µM

Asked: Give TGI; test system CAKI-1 renal; compound COc1ccc(-n2c(C)nc3ccc(NC4OC(COC(C)=O)C(OC(C)=O)C(OC(C)=O)C4OC(C)=O)cc3c2=O)cc1 (stereo not given)
Given back: 57.3 µM

Asked: Recall the reported TGI of `CCc1cccc(CC)c1Nc1nc(-c2ccccc2-c2ccccc2)cs1` when tested on CAKI-1 renal.
Given back: > 100 µM

Asked: Return reported TGI for target or system CAKI-1 renal, item `CN1C=C(C(N)=O)Cc2ccsc21` .
Given back: > 100 µM

Asked: Send back CAKI-1 renal TGI of CC1CCC2C(C(=O)O[C@H]3C4C=CO[C@@H](OC5OC(CO)C(O)C(O)C5O)C4[C@@]4(CO)O[C@@H]34)=CO[C@@H](OC3OC(CO)C(O)C(O)C3O)C12 (stereo not given in full) only.
Given back: > 10 µM

Asked: Give TGI for CC1=NN(c2ccccc2Cl)C2(C1)C(Cl)C(=O)N2c1nc2ccccc2s1 (stereo not given) tested on CAKI-1 renal.
Given back: > 100 µM
